A collection of compounds and their measured microsomal CLint at 0.8 μM
# Run description: CLint (intrinsic clearance) assay, microsomal incubation
# Type: in vitro ADME, Human
# Condition parameters: human, liver microsomes, pH 7.4, human liver microsomes 0.5 mg/mL protein, NADPH, 37° C., up to 30 min
# Method: 2. CLint (Intrinsic Clearance) Assay A Tecan Genesis workstation (RWS ASY 150/8) was used to perform the microsomal incubations. Analysis was carried out using a Waters ACQUITY UPLC system coupled to an ABSciex API3000 mass spectrometer. […] The metabolic stability of each compound was determined by measurement of the change in LC-MS/MS peak area over time. […] The intrinsic clearance (CLint) of each compound was then calculated according to the formula: CLint(μL/min/mg protein)=k1000/protein concentration. […]

Some compounds with recorded microsomal CLint at 0.8 μM:
> print(dat)
                                   compound          measured.parameter      test.value
1  O=C1CC2(CCN(c3c(Cl)cncc3-c3ccc4c(c3)CS(=O)(=O)N4)CC2)C(=O)N1 [Example 84]  microsomal CLint at 0.8 μM  < 10 µL/min/mg
2  Cn1cc(-c2ccc(-c3cncc(C(F)(F)F)c3N3CCC4(CC3)CNC(=O)O4)cc2)cn1 [Example 35]  microsomal CLint at 0.8 μM  < 10 µL/min/mg

Here's the next entry for you.
Task: Would you mind telling me what microsomal CLint at 0.8 μM value was observed for CN1C(=O)Cc2cc(-c3cncc(Cl)c3N3CCC4(CC3)CC(=O)NC4=O)ccc21 [Example 65] ?
Output: < 10 µL/min/mg

Source listed as patent US9926319B2.
